method description: Melting temperature (Tm) determination by nanoDSF
Format: physicochemical
measurement conditions: inflection point #1, 1.0 mg/ml in PBS, 20-95° C. at 1° C./min
parameter: Tm (°C)

>>> numeric_result("IBIIICI CDR graft scFv variant QG: humanized scFv point mutated variant, SEQ ID NO:51 (protein) scFv: QVQLVQSGAEVKKPGASVKVSCKASGFNIKDFNIHWVRQAPGQGLEWIGRIDPEQGDAEYVPKFQGRVTMTRDTSTSTVYMELSSLRSEDTAVYYCTTGSYDLDVEYWGQGTLVTVSSGGGGSGGGGSGGGGSGGGGSDIQMTQSPSSLSASVGDRVTITCHASQNINVWLSWYQQKPGKAPKLLIYKASTLHTGVPSRFSGSGSGTDFTLTISSLQPEDFATYYCQQGQSYPLTFGQGTKLEIK")
62.2
>>> numeric_result("IBIIICI CDR graft scFv variant DG: humanized scFv point mutated variant, SEQ ID NO:52 (protein) scFv: QVQLVQSGAEVKKPGASVKVSCKASGFNIKDFNIHWVRQAPGQGLEWIGRIDPEDGDAEYVPKFQGRVTMTRDTSTSTVYMELSSLRSEDTAVYYCTTGSYDLDVEYWGQGTLVTVSSGGGGSGGGGSGGGGSGGGGSDIQMTQSPSSLSASVGDRVTITCHASQNINVWLSWYQQKPGKAPKLLIYKASTLHTGVPSRFSGSGSGTDFTLTISSLQPEDFATYYCQQGQSYPLTFGQGTKLEIK")
62.4
>>> numeric_result("IBIIICI CDR graft scFv variant NA: humanized scFv point mutated variant, SEQ ID NO:53 (protein) scFv: QVQLVQSGAEVKKPGASVKVSCKASGFNIKDFNIHWVRQAPGQGLEWIGRIDPENADAEYVPKFQGRVTMTRDTSTSTVYMELSSLRSEDTAVYYCTTGSYDLDVEYWGQGTLVTVSSGGGGSGGGGSGGGGSGGGGSDIQMTQSPSSLSASVGDRVTITCHASQNINVWLSWYQQKPGKAPKLLIYKASTLHTGVPSRFSGSGSGTDFTLTISSLQPEDFATYYCQQGQSYPLTFGQGTKLEIK")
60.8
>>> numeric_result("IBIIICI CDR graft scFv variant GG: humanized scFv point mutated variant, SEQ ID NO:50 (protein) scFv: QVQLVQSGAEVKKPGASVKVSCKASGFNIKDFNIHWVRQAPGQGLEWIGRIDPEGGDAEYVPKFQGRVTMTRDTSTSTVYMELSSLRSEDTAVYYCTTGSYDLDVEYWGQGTLVTVSSGGGGSGGGGSGGGGSGGGGSDIQMTQSPSSLSASVGDRVTITCHASQNINVWLSWYQQKPGKAPKLLIYKASTLHTGVPSRFSGSGSGTDFTLTISSLQPEDFATYYCQQGQSYPLTFGQGTKLEIK")
62.6
